B1: TPR 5TU (parent)
chain: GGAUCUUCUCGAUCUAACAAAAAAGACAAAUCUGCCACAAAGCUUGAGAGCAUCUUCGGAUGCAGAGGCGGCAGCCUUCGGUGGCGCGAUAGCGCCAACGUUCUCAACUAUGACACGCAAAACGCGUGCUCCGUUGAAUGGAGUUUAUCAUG

Variants of: B1
method_description: polymerase ribozyme fitness, log enrichment relative to wild type (log ratio); higher = more active; in vitro selection for triplet polymerase activity
Variants at the floor of the assay were thinned out.
assay_endpoint: polymerase ribozyme fitness (log ratio)

Example results:
U9A C32A U55G G88U U109A; ≤ -4.2
G65C G71U; ≤ -4.2
A26U U33A A47G G62A G94U C105U A110U; ≤ -4.2

Problem: Determine its reported polymerase ribozyme fitness (log ratio): A26C A52C U53A
Result: ≤ -4.2

Problem: Look up and report measured polymerase ribozyme fitness (log ratio) for this entry: C14A G25A U53G G84C C87U G117C G124A
Result: ≤ -4.2

Problem: Given the variant C8U A28U G58A G74C U127G G133C A142U C149G , write its reported polymerase ribozyme fitness (log ratio).
Result: ≤ -4.2

Problem: Give a short answer stating reported polymerase ribozyme fitness (log ratio) for A26C G92C U104C C108U A115C .
Result: ≤ -4.2

Problem: // fetch polymerase ribozyme fitness (log ratio) given entry A30U A73U G74U C76G U90G U139C
Result: ≤ -4.2

Problem: Fill in polymerase ribozyme fitness (log ratio) for record U15G G34U A107C A115U C118A U134C U135G A150G
Result: ≤ -4.2

Problem: Query polymerase ribozyme fitness (log ratio) for A47C G50A U102C U146A
Result: -2.55

Problem: Note polymerase ribozyme fitness (log ratio) for the variant shown: A60C U61C C76U A121G
Result: ≤ -4.2

Problem: Name the recorded polymerase ribozyme fitness (log ratio) of the variant listed here: G92A A106C U111G G136A
Result: ≤ -4.2

Problem: Note down polymerase ribozyme fitness (log ratio) recorded for U7C U55A C63U G88U A107U U145A
Result: ≤ -4.2

Problem: Tell me its polymerase ribozyme fitness (log ratio) given A12G as the entry.
Result: 0.116

Problem: Give the value of polymerase ribozyme fitness (log ratio) reported for the following: C5U U15A A17G C18U G42A U53A U55A A60C G68C C79U A91C A97G
Result: ≤ -4.2

Problem: Look up polymerase ribozyme fitness (log ratio) of C85U A107U and report it.
Result: -3.65

Problem: Name the recorded polymerase ribozyme fitness (log ratio) of the variant listed here: G80A C114U A137C
Result: -3.92

Problem: Read the entry A12U U56A A115G and write its reported polymerase ribozyme fitness (log ratio).
Result: -2.11

Problem: Report polymerase ribozyme fitness (log ratio) for C57A G92U C105G
Result: -1.2

Problem: Specify measured polymerase ribozyme fitness (log ratio) for A21U C93G .
Result: -2.5

Problem: Write down polymerase ribozyme fitness (log ratio) measured for item U4A C51U G94C A98U
Result: -1.63

Problem: Recall and state the measured polymerase ribozyme fitness (log ratio) for C54U G67U G86U C95A .
Result: ≤ -4.2

Problem: Name the recorded polymerase ribozyme fitness (log ratio) of the variant listed here: A20G A40U U77C
Result: ≤ -4.2
